experiment: Solubility (Test F); format: physicochemical; conditions: arithmetic mean if run multiple times
measured-property: solubility (µM)

A: COc1cc(C#N)c(O[C@H]2CC[C@@](C)(C(=O)O)CC2)cc1C(=O)N[C@@H]1[C@@H]2CC[C@@H](C2)[C@@H]1C(=O)NCC1(C)CCC1
B: COc1cc(F)c(O[C@H]2CC[C@@](C)(C(=O)O)CC2)cc1C(=O)Nc1cnccc1C(=O)NCC1(C)CCC1
Q. Would you let me know which has the greater solubility value, A or B ? # reply format: chosen label
A. A

###

target: human RXFP1 (Homo sapiens, UniProt Q9HBX9); experiment: RXFP1 Hu cAMP (Test A); format: cell-based; parameters: expressed in transfected cells; host or cells: Jump-In T-REx CHO-K1 cells (ThermoFisher), induced with 10 ng/ml doxycycline for 24 h; conditions: RXFP1 Hu cAMP
Sequence (Q9HBX9 whole entry): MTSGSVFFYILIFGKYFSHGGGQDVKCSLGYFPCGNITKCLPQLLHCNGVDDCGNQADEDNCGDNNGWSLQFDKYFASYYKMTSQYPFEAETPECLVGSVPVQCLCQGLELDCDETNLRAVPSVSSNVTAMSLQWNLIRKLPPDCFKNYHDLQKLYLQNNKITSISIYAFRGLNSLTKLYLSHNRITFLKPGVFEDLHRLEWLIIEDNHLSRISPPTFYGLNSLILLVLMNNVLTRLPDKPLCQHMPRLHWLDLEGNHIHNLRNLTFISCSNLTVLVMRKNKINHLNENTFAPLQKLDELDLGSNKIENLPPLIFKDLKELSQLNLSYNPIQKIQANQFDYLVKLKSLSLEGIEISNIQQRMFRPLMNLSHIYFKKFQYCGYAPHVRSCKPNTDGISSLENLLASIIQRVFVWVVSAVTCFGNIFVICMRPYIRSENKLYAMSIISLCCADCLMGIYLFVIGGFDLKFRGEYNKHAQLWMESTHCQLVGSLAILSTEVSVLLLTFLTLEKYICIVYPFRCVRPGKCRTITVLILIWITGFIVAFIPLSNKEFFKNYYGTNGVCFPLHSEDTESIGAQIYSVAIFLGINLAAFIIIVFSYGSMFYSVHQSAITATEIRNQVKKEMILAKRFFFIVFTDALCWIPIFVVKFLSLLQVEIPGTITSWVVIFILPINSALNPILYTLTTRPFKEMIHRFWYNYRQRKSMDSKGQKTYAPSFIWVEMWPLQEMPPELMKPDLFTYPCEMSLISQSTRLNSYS
measured-property: Test A Sinf (%)

compound="COc1cc(F)c(O[C@H]2CC[C@@](C)(C(=O)O)CC2)cc1C(=O)N[C@H]1[C@@H](C(=O)NCC2(C)CCC2)[C@H]2CC[C@@H]1O2 (racemic)" measured_property="Test A Sinf" unit_symbol=% obs_value=90
compound=COc1cc(C#N)c(O[C@H]2CC[C@@](C)(C(=O)O)CC2)cc1C(=O)N[C@@H]1[C@H]2CC[C@H](C2)[C@@H]1C(=O)NCC(C)(C)C(F)(F)F measured_property="Test A Sinf" unit_symbol=% obs_value=113
compound="COc1ccc(Oc2ccc(C(=O)O)cc2)cc1C(=O)N[C@H]1[C@@H](C(=O)Nc2cccc(S(=O)(=O)C(F)(F)F)c2)[C@@H]2C=C[C@H]1C2 (racemic)" measured_property="Test A Sinf" unit_symbol=% obs_value=86
